# pIC50 per record follows
biological target: H-ras FPT (Ras-CVLS farnesylation by partially purified rat brain farnesyl protein transferase (FPT)) (Rattus norvegicus, UniProt Q02293+Q04631); construct: partially purified rat brain farnesyl protein transferase (FPT); assay: FPT IC50 (inhibition of farnesyl protein transferase, in vitro enzyme assay)
As a rule, pIC50 stands for the negative log10 of the concentration, concentration in M.

Molecule	Parameter Measured	Numeric Value
NOCC(=O)N1CCC([C@H]2c3ncc(Br)cc3CCc3cc(Cl)cc(Br)c32)CC1	pIC50	7.49

Answer with the recorded pIC50 of O=C(NOCC(=O)N1CCC([C@H]2c3ncc(Br)cc3CCc3cc(Cl)cc(Br)c32)CC1)c1ccccc1 only.
7.57
